Target: T1, human MSR1 extracellular domain expressed with a N-terminal nonahistidine tag (His9-hMSR1); R&D Systems, Cat … (human, UniProt P21757 77-451)
T1 construct: extracellular domain; also called His-hMSR1; 9xHis-hMSR1; not shown: N-terminal nonahistidine tag
T1 sequence (looked up): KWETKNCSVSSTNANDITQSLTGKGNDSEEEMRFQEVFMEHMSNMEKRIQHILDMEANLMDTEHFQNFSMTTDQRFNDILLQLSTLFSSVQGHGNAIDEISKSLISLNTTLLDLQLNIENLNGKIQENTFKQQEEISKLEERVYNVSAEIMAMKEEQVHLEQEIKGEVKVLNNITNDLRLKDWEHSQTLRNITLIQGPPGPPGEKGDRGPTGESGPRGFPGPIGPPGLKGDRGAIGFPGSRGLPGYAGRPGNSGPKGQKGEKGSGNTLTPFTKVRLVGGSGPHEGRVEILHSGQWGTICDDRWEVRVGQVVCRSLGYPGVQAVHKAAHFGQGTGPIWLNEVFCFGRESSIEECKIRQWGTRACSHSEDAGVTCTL
Assay: SPR Biacore, 25 C, antibody captured;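 note: rates from 1:1 fit with mass transport limitation of real-time sensorgrams, HEPES-buffered saline with EDTA and Tween-20 at pH 7.4, KD and t½ derived from the kinetic rates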
measured endpoint: kon (M⁻¹ s⁻¹)
Reply with just the number (in M⁻¹ s⁻¹).

Consider the following illustrative entries.
H1H27729P-N297Q (antibody, V domains shown, Human IgG1 Fc with N297Q point mutation) VH: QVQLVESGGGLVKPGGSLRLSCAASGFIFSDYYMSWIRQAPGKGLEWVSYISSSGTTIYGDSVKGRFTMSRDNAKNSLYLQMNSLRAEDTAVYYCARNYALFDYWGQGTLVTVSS VL: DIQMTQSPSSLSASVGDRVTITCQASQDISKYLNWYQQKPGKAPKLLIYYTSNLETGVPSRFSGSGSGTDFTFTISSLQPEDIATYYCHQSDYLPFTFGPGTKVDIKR: 197000
H1H27731P-N297Q (antibody, V domains shown, Human IgG1 Fc with N297Q point mutation) VH: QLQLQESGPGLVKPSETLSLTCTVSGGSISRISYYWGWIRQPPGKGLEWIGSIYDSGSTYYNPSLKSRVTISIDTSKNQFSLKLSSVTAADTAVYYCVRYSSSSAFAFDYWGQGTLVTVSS VL: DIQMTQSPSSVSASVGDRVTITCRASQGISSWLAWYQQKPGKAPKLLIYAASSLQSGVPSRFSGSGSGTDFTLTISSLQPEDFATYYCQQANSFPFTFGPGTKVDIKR: 129000
H1H27734P-N297Q (antibody, V domains shown, Human IgG1 Fc with N297Q point mutation) VH: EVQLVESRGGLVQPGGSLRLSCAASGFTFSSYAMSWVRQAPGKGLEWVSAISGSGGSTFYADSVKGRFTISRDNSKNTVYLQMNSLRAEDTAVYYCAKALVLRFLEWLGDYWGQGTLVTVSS VL: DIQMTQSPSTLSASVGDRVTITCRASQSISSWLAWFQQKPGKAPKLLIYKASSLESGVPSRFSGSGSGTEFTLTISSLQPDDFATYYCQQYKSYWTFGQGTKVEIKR: 420000

Now take the following binder into account.
For the binder H1H27739P-N297Q (antibody, V domains shown, Human IgG1 Fc with N297Q point mutation) VH: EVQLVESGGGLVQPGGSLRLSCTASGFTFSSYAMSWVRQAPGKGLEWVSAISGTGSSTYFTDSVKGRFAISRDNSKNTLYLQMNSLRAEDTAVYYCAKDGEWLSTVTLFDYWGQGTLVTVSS VL: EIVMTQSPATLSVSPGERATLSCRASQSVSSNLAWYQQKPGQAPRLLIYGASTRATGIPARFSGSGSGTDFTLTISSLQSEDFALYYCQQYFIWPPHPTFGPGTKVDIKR , what kon is on record?
375000

Origin of values: patent US20190367631A1
